- experiment: Steady-state tryptophan fluorescence and CD with and without POPC liposomes
- Assay type: physicochemical
- test_context: with POPC liposomes pH 8; normalized on area for peptide at pH 8 in absence of POPC
Peptide text beside a SMILES is read from it.
Here, each record is paired with measured S, normalized area under the spectra, Pep-PC, pH8 data.
Answer with the value's number alone.

# molecule, measured_value
measured = [
    ("O=C(O)CC[C@@H]1NC(=O)[C@H](Cc2c[nH]c3ccccc23)NC(=O)[C@H](CS)NC(=O)[C@H](Cc2c[nH]c3ccccc23)NC(=O)[C@H](CCC(=O)O)NC(=O)[C@H](Cc2c[nH]c3ccccc23)NC(=O)[C@H](CCC(=O)O)NC(=O)[C@H](Cc2c[nH]c3ccccc23)NC(=O)[C@H](CCC(=O)O)NC(=O)[C@H](Cc2c[nH]c3ccccc23)NC1=O [c[(WE)4WC]] (cyclo(CWEWEWEWEW))", 1.1),
]

Request: Read off the recorded S, normalized area under the spectra, Pep-PC, pH8 for O=C(O)CC[C@@H]1NC(=O)[C@H](CS)NC(=O)[C@H](Cc2c[nH]c3ccccc23)NC(=O)[C@H](Cc2c[nH]c3ccccc23)NC(=O)[C@H](Cc2c[nH]c3ccccc23)NC(=O)[C@H](Cc2c[nH]c3ccccc23)NC(=O)[C@H](Cc2c[nH]c3ccccc23)NC(=O)[C@H](CCC(=O)O)NC(=O)[C@H](CCC(=O)O)NC(=O)[C@H](CCC(=O)O)NC1=O [c[E4W5C]]
Result: 2.4

Request: Read off the recorded S, normalized area under the spectra, Pep-PC, pH8 for O=C(O)CC[C@@H]1NC(=O)[C@H](Cc2c[nH]c3ccccc23)NC(=O)[C@H](CS)NC(=O)[C@H](Cc2c[nH]c3ccccc23)NC(=O)[C@H](CCC(=O)O)NC(=O)[C@H](Cc2c[nH]c3ccccc23)NC(=O)[C@H](CCC(=O)O)NC(=O)[C@H](Cc2c[nH]c3ccccc23)NC1=O [c[(WE)3WC]] (cyclo(CWEWEWEW))
Result: 0.9

Request: Read off the recorded S, normalized area under the spectra, Pep-PC, pH8 for O=C(O)CC[C@@H]1NC(=O)[C@H](Cc2c[nH]c3ccccc23)NC(=O)[C@H](CS)NC(=O)[C@H](Cc2c[nH]c3ccccc23)NC(=O)[C@H](CCC(=O)O)NC(=O)[C@H](Cc2c[nH]c3ccccc23)NC(=O)[C@H](CCC(=O)O)NC(=O)[C@H](Cc2c[nH]c3ccccc23)NC(=O)[C@H](CCC(=O)O)NC(=O)[C@H](Cc2c[nH]c3ccccc23)NC(=O)[C@H](CCC(=O)O)NC(=O)[C@H](Cc2c[nH]c3ccccc23)NC1=O [c[(WE)5WC]] (cyclo(CWEWEWEWEWEW))
Result: 1.5

Request: Read off the recorded S, normalized area under the spectra, Pep-PC, pH8 for CC(C)C[C@@H]1NC(=O)[C@H](CS)NC(=O)[C@H](Cc2c[nH]c3ccccc23)NC(=O)[C@H](CCC(=O)O)NC(=O)[C@H](CC(C)C)NC(=O)[C@H](CCC(=O)O)NC(=O)[C@H](CC(C)C)NC(=O)[C@H](CCC(=O)O)NC(=O)[C@H](CC(C)C)NC(=O)[C@H](CCC(=O)O)NC1=O [c[(LE)4WC]] (cyclo(CLELELELEW))
Result: 1.1
